Test system: AM-38 (Glioblastoma)
TEST_DETAILS: combination Emax (second highest fraction inhibited in the dose matrix, 72 h); higher = more inhibition; extreme values may be limits of the assay
Please provide measured combination Emax for the entries that follow.
Write no unit; give the number alone.

Readout combination Emax for CN(C)CCCOc1ccc(-c2ccc3ncc4c(c3c2)n(C2CCOCC2)c(=O)n4C)cn1 [AZD0156] + CCN(CCO)CCCOc1ccc2c(Nc3cc(CC(=O)Nc4cccc(F)c4)[nH]n3)ncnc2c1 [AZD2811] (first compound max 1 µM, 7x7, partner max 1 µM) , test system AM-38 (Glioblastoma), was 0.342

Form: item COc1cc2ncnc(Nc3ccc(F)c(Cl)c3)c2cc1OCCCN1CCOCC1 [Gefitinib] + CC(C)n1c(=O)n(C)c2cnc3cc(F)c(-c4ccc(OCCCN5CCCCC5)nc4)cc3c21 [AZD1390] (first compound max 10 µM, 7x7, partner max 0.3 µM) ; test system AM-38 (Glioblastoma); combination Emax: 0.123

Values from the supplement of paper PMC11061612
